Quick list: glycan array binding signal (z-score) per entry.
testTarget: Gal(b1-3)GlcNAc(b1-6)Gal(b1-4)GlcNAc
experimentDescription: glycan array binding signal (z-score within array); higher = stronger binding
experimentalContext: glycan notation: IUPAC condensed, linker removed
The entries come from a sample that favours the strongest signals as a whole.
Just the number, please, no unit attached.

binder: VLRB.aGPA.23-GCN4-biotin (Petromyzon marinus) (protein) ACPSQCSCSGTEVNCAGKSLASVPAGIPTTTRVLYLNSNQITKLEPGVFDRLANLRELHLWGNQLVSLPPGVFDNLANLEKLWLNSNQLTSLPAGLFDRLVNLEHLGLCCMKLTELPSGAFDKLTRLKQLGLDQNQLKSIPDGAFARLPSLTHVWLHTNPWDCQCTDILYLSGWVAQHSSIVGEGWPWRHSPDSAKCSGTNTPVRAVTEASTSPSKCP
numericReadout: -0.077

Now for the binder whose glycan array binding signal (z-score) we want.
Inquiry: Identify glycan array binding signal (z-score) associated with the binder SSL (Salmo salar) (protein) TGAKGAEEGVVPAETRNQCPTGWFQFGSRCFMFVETARSWPLAERHCVSLGANLASVHSSADDQFLQAIAGCKTGAFSTTWIGGFDAVQDRLWFWSDGSEFDYQNWAKGEPNNSGGREPCIVINWGDEYRWNDIKCGNSFPSVCSKRICEIQKN
Reply text: -0.163
